Biological target: Kappa-type opioid receptor (Homo sapiens)
pKi: −log10 of the molar value.
Known pKi of a selection of molecules
measurement type: pKi

> print(dat)
                                   molecule  measurement.type  sign.qualifier  result
1  COC(=O)[C@@H]1C[C@H](OC)C(=O)[C@H]2[C@@]1(C)CC[C@H]1C(=O)O[C@H](c3ccoc3)C[C@]21C               pKi               =    6.66
2  CCC(=O)O[C@H]1C[C@@H](C(=O)OC)[C@]2(C)CC[C@H]3C(=O)O[C@H](c4ccoc4)C[C@]3(C)[C@H]2C1=O               pKi               =    8.14
3  CN[C@@H]1C[C@@H](C(=O)OC)[C@]2(C)CC[C@H]3C(=O)O[C@H](c4ccoc4)C[C@]3(C)[C@H]2C1=O               pKi               <    5.00
4  CCCO[C@H]1C[C@@H](C(=O)OC)[C@]2(C)CC[C@H]3C(=O)O[C@H](c4ccoc4)C[C@]3(C)[C@H]2C1=O [SALVINORIN A PROPYL ETHER]               pKi               =    7.54
5  COC(=O)[C@@H]1C[C@@H](N(C)C)C(=O)[C@H]2[C@@]1(C)CC[C@H]1C(=O)O[C@H](c3ccoc3)C[C@]21C               pKi               =    7.04
6  COC(=O)[C@@H]1C[C@H](OC(=O)[C@H](C)N)C(=O)[C@H]2[C@@]1(C)CC[C@H]1C(=O)O[C@H](c3ccoc3)C[C@]21C               pKi               <    5.00
7  CCN[C@@H]1C[C@@H](C(=O)OC)[C@]2(C)CC[C@H]3C(=O)O[C@H](c4ccoc4)C[C@]3(C)[C@H]2C1=O               pKi               =    7.54

---

Biological target: Kappa-type opioid receptor (Homo sapiens, UniProt P41145)
Sequence (P41145 whole entry): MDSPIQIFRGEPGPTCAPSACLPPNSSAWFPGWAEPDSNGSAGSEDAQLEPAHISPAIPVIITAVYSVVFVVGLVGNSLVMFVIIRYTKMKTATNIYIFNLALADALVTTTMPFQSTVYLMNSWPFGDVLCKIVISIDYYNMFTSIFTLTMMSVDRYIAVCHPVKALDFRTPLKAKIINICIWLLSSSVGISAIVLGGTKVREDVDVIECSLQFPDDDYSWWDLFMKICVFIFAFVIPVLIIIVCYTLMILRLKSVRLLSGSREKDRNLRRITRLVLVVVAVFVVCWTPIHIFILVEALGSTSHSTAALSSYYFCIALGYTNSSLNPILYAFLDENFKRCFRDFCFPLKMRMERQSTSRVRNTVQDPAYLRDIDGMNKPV
Assay: Effective concentration for activation of human Opioid receptor kappa 1 expressed in chinese hamster ovary cells to enhance [35S]GTP-gamma-S, binding
pEC50: −log10 of the molar value.
Classify as follows. Reported pEC50 greater than or equal to 7: Condition met. Reported pEC50 below: Condition not met.

> print(dat)
                        structure.as.smiles                               system.name     assigned.class
1  COC(=O)[C@@H]1C[C@@H](N(C)C)C(=O)[C@H]2[C@@]1(C)CC[C@H]1C(=O)O[C@H](c3ccoc3)C[C@]21C  Kappa-type opioid receptor (Homo sapiens, UniProt P41145)  Condition not met
2  COC(=O)[C@@H]1C[C@H](OC)C(=O)[C@H]2[C@@]1(C)CC[C@H]1C(=O)O[C@H](c3ccoc3)C[C@]21C  Kappa-type opioid receptor (Homo sapiens, UniProt P41145)  Condition not met
3  COC(=O)[C@@H]1C[C@H](OC(N)=O)C(=O)[C@H]2[C@@]1(C)CC[C@H]1C(=O)O[C@H](c3ccoc3)C[C@]21C  Kappa-type opioid receptor (Homo sapiens, UniProt P41145)      Condition met
4  CCC(=O)O[C@H]1C[C@@H](C(=O)OC)[C@]2(C)CC[C@H]3C(=O)O[C@H](c4ccoc4)C[C@]3(C)[C@H]2C1=O  Kappa-type opioid receptor (Homo sapiens, UniProt P41145)      Condition met

The reported numbers originate from ChEMBL document CHEMBL1145271.
